# Tested target: human S1P1 receptor (Homo sapiens)
# Construct: membranes used
# Measurement protocol: GTP γ35S binding assay for S1P1 activity
# Protocol conditions: membranes of cells stably expressing S1P1 receptor, agonist potency
Field: label. Allowed values: true (EC50 < 4 nM) or false (EC50 >= 4 nM).

Below are worked cases with known answers.
Task: Given O=P(O)(O)CCCNCc1ccc(CCCCCCc2ccccc2)c(F)c1 , is recorded EC50 strictly lower than 4 nM?
Output: false

Task: Same thing, different compound: Cc1cc(CNCCCP(=O)(O)O)ccc1C#CCCCCc1ccccc1
Output: true

Pending compound:
Task: Threshold test, EC50 < 4 nM: O=P(O)(O)CCCNCc1ccc(CCCCCCc2ccccc2)cc1
Output: false

---

# Tested target: human S1P1 receptor (Homo sapiens, UniProt P21453)
# Construct: membranes used
# Sequence (P21453 whole entry): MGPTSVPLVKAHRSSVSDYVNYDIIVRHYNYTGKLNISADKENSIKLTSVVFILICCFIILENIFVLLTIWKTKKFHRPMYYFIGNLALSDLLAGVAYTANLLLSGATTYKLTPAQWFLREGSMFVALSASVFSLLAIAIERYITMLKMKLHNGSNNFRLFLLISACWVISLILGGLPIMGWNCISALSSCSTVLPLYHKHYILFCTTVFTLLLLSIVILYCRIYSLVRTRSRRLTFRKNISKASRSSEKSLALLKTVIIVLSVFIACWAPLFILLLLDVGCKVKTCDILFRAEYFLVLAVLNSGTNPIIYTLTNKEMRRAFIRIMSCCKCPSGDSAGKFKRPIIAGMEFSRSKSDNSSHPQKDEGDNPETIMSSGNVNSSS
# Measurement protocol: GTP γ35S binding assay for S1P1 activity
# Protocol conditions: membranes of cells stably expressing S1P1 receptor, agonist potency
API: label(entry) gives YES if the entry's EC50 is strictly smaller than 30 nM; on equality or larger values it gives NO.

A selection of reference data follows.
Task: Given the entry O=P(O)(O)CCCNCc1cc(F)c(CCCCCCc2ccccc2)cc1F , would its reported EC50 be below 30 nM?
Output: YES

Task: Moving on to the next compound: O=P(O)(O)CCCNCc1ccc(CCCCCCc2ccccc2)c(Cl)c1
Output: YES

Task: Could you do the same for O=P(O)(O)CCCNCc1ccc(CCCCCCc2ccccc2)c(C(F)(F)F)c1 , please?
Output: YES

Task: Record: O=C(CCCCc1ccccc1)Nc1ccc(CNCCCP(=O)(O)O)cc1Br
Output: NO

Here is the next item to consider.
Task: Please state whether EC50 is below 30 nM for O=P(O)(O)CCCNCc1ccc(C#CCCCCc2ccccc2)cc1
Output: YES

---

# Tested target: human S1P1 receptor (Homo sapiens, UniProt P21453)
# Construct: membranes used
# Measurement protocol: GTP γ35S binding assay for S1P1 activity
# Protocol conditions: membranes of cells stably expressing S1P1 receptor, agonist potency
Observable: pEC50
Value format note: pEC50 is -log10 of concentration (mol/L); just state the number.

Task: // pEC50 lookup, key: O=P(O)(O)CCCNCc1ccc(NCCCCCc2ccccc2)c(Br)c1
Output: 8.39

Task: Same read-out for O=P(O)(O)CCCNCc1ccc(C#CCCCCc2ccccc2)c(Br)c1 ?
Output: 7.66

Next:
Task: For Cc1cc(CNCCCP(=O)(O)O)ccc1CCCCCCc1ccccc1 , what is its reported pEC50?
Output: 9.15

Task: How about O=P(O)(O)CCCNCc1ccc(C#CCCCCc2ccccc2)c(F)c1 ?
Output: 8.37
